Record form. Attribute: normalised viability. Fill in for each entry.
Test system: CAL-85-1
Assay: normalised viability (% of control), CellTiter-Blue; higher = more viable cells (about 100 = DMSO control)
Conditions: 3000 nM; incubation time: 72 h
Answers without a unit are incomplete; give the number and then its unit.

>  <Molecule>
CN(C)CCN1C(=O)c2cccc3cc(N)cc(c23)C1=O [Amonafide]

>  <Data value>
61.9%

$$$$

I'm hoping you can list normalised viability for every molecule here, please.
1. CCCCCCCCc1ccc(CCC(N)(CO)CO)cc1 [Fingolimod]
2. Cn1cncc1[C@@](N)(c1ccc(Cl)cc1)c1ccc2c(c1)c(-c1cccc(Cl)c1)cc(=O)n2C [Tipifarnib]
3. CNNCc1ccc(C(=O)NC(C)C)cc1 [Procarbazine]

a:
1. 91.7%
2. 65.2%
3. 95.7%
